# measurement.description: Pharmacokinetic study in minipigs (i.v.)
# Type: in vivo, Göttingen minipigs
# conditions.used: female, Göttingen, minipig, plasma, iv; i.v. administration to minipigs, 2 nmol/kg; read-out: Terminal half-life t1/2 (converted)
Numbered stars: 1 amine (or outer) side, 2 acyl side, 3 side chain; on linkers, the order of the positions; unused ones are H or OH. Square brackets hold non-standard residues; d marks the D form. Side chains are listed from the residue outwards. * marks the point of attachment. C20 diacid = O=C(O)CCCCCCCCCCCCCCCCCCC(=O)*; C18 diacid = O=C(O)CCCCCCCCCCCCCCCCC(=O)*; C16 diacid = O=C(O)CCCCCCCCCCCCCCC(=O)*; γGlu = O=C(O)[C@H](CCC(=O)[*:2])N[*:1]; AEEA = NCCOCCOCC(=O)O; Aib = CC(C)(N)C(=O)O
Would you kindly list half-life for each of these substances?
Just the number please, in h, no unit attached.

Q: Note half-life for the substance shown: Y[Aib]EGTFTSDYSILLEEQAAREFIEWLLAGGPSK([AEEA-AEEA-γGlu-C16 diacid])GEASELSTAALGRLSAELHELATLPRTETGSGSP-NH2 [Compound 11]
A: 119

Q: For the substance H[Aib]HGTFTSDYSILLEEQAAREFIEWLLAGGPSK([AEEA-AEEA-γGlu-C20 diacid])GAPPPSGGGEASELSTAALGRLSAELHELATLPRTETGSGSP-NH2 [Compound 16] , report half-life.
A: 138

Q: Kindly indicate its recorded half-life. Item: Y[Aib]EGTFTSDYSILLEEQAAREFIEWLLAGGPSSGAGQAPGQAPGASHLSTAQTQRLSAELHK([AEEA-AEEA-γGlu-C18 diacid])LATLPRTETGSGSP-NH2 [compound 52]
A: 120

Q: Give recorded half-life. H[Aib]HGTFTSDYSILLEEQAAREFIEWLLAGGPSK([AEEA-AEEA-γGlu-C16 diacid])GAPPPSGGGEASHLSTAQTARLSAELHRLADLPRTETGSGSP-NH2 [Compound 61]
A: 61

Q: Consider the substance Y[Aib]EGTFTSDYSILLEEQAAREFIEWLLAGGPSSGAGQAPGQAPLASHLSTAQTQRLSAELHK([AEEA-AEEA-γGlu-C18 diacid])LATLPRTETGSGSP-NH2 [compound 58] . State its measured half-life.
A: 97

// data source = patent US20260174875A1
